- SUBJECT OF TEST: Galactokinase (Homo sapiens) (UniProt P51570)
- Sequence (P51570 whole entry, looked up): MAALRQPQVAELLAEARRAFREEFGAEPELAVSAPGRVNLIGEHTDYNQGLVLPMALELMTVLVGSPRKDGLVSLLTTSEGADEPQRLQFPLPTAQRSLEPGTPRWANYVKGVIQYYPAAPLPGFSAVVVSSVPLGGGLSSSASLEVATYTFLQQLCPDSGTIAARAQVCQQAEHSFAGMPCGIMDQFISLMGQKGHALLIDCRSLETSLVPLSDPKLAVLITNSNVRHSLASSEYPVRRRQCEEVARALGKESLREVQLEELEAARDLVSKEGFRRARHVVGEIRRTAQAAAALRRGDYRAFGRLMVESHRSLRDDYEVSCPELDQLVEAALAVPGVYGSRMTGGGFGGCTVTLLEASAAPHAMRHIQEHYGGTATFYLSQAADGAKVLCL
- ASSAY DETAILS: qHTS Assay for Inhibitors of Human Galactokinase (GALK): NCGC Sytravon Library Screen
- CONDITION SET: recombinant GALK, Kinase-Glo ATP luminescence, 1 h; series mostly up to 57.5 µM
In all, about 44,000 compounds went through this assay and fewer than 10 were called active. Roughly 2% stayed inconclusive and do not appear here. Only a sample is shown.
OBSERVATION TYPE: outcome

COc1cc(NC(=O)Cn2c(=O)n(Cc3ccco3)c(=O)c3oc4ccccc4c32)cc(OC)c1
inactive
CCOC(=O)c1c(S(=O)(=O)N2CCCC(C(=O)NCc3cccc(C)c3)C2)c(C)n(C)c1C (stereo not given)
inactive
CCN(CC)S(=O)(=O)c1ccc2c(c1)c(=O)c(C(=O)N1CCN(c3cccc(Cl)c3)CC1)cn2C
inactive
CCOC(=O)c1cc(NC(=O)c2ccc(F)cc2)c(=O)n2c1oc1ccccc12
inactive

With those in mind, consider the next compound.
outcome for CC1=C(c2ccc(C)c(C)c2)S(=O)(=O)NC1=NCc1ccccc1Cl ? inactive
